Give viability, T/C for every item shown.
# System: 429239-143-T-J1-PDC complex spheroid viability
# protocol_text: Anticancer human tumor 429239-143-T-J1-PDC patient-derived small cell lung carcinoma cell line growth inhibition [POLQ]
# protocol_conditions: second compound 3.16 µM; first compound 0.00316 µM; stronger effect = lower value
Numbers only, in %.

Please state viability, T/C for every compound in the list that follows.
1. C=CCn1c(=O)c2cnc(Nc3ccc(N4CCN(C)CC4)cc3)nc2n1-c1cccc(C(C)(C)O)n1 + Nc1ccc(C#CCN(C(=O)Cc2ncc(C(F)(F)F)cc2C(F)(F)F)c2ccc(F)cc2)nn1
2. CC[C@@]1(O)C(=O)OCc2c1cc1n(c2=O)Cc2cc3c(CN(C)C)c(O)ccc3nc2-1 + COC1C(OC(N)=O)C(O)C(Oc2ccc3c(O)c(NC(=O)c4ccc(O)c(CC=C(C)C)c4)c(=O)oc3c2C)OC1(C)C
3. Cn1ncnc1[C@H]1c2n[nH]c(=O)c3cc(F)cc(c23)N[C@@H]1c1ccc(F)cc1 + Nc1ccc(C#CCN(C(=O)Cc2ncc(C(F)(F)F)cc2C(F)(F)F)c2ccc(F)cc2)nn1
4. C=CCn1c(=O)c2cnc(Nc3ccc(N4CCN(C)CC4)cc3)nc2n1-c1cccc(C(C)(C)O)n1 + COC1C(OC(N)=O)C(O)C(Oc2ccc3c(O)c(NC(=O)c4ccc(O)c(CC=C(C)C)c4)c(=O)oc3c2C)OC1(C)C

1: 109; 2: 99.7; 3: 94.2; 4: 98.8

----------
# Tested on: 429239-143-T-J1-PDC complex spheroid viability
# protocol_text: Anticancer human tumor 429239-143-T-J1-PDC cell line growth inhibition [POLQ];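 note: luminescence signal used as surrogate measure of viable cells; spheroids exposed to compounds for seven days before readout; 100% = DMSO vehicle control viability as luminescence relative to vehicle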
# protocol_conditions: second compound 0.316 µM; first compound 0.1 µM; stronger effect = lower value
Simple rule here: viability, T/C less than 90% is criterion met, otherwise criterion not met.

{"compound": "O=C(c1cc(Cc2n[nH]c(=O)c3ccccc23)ccc1F)N1CCN(C(=O)C2CC2)CC1 + COC1C(OC(N)=O)C(O)C(Oc2ccc3c(O)c(NC(=O)c4ccc(O)c(CC=C(C)C)c4)c(=O)oc3c2C)OC1(C)C", "qualitative_label": "criterion not met"}
{"compound": "CNCc1ccc(-c2[nH]c3cc(F)cc4c3c2CCNC4=O)cc1 + Cc1cccc(N(C)C(=O)C2C(O)CCN2c2nc(C)cc(C(F)(F)F)c2C#N)c1", "qualitative_label": "criterion not met"}
{"compound": "CC1COCCN1c1cc(C2(S(C)(=N)=O)CC2)nc(-c2ccnc3[nH]ccc23)n1 (stereo not given) + Nc1ccc(C#CCN(C(=O)Cc2ncc(C(F)(F)F)cc2C(F)(F)F)c2ccc(F)cc2)nn1", "qualitative_label": "criterion not met"}

API: the following record is the query input.
Just wondering, is viability, T/C of CC1COCCN1c1cc(-c2ccnn2C)c2ccnc(-c3ccn[nH]3)c2n1 (stereo not given) + Nc1ccc(C#CCN(C(=O)Cc2ncc(C(F)(F)F)cc2C(F)(F)F)c2ccc(F)cc2)nn1 below 90%? criterion met

----------
# Test system: 429239-143-T-J1-PDC complex spheroid viability
# protocol_text: Anticancer human tumor 429239-143-T-J1-PDC cell line growth inhibition [POLQ]; active = viability on the fitted dose curve at most 10% of control; inactive = the rest;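 note: luminescence signal used as surrogate measure of viable cells; spheroids exposed to compounds for seven days before readout; 100% = DMSO vehicle control viability as luminescence relative to vehicle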
# protocol_conditions: second compound 1 µM; first compound 1 µM
Write down one outcome, taken from yes for active, no for inactive

State the result this test recorded for CCCS(=O)(=O)Nc1ccc(F)c(C(=O)c2c[nH]c3ncc(-c4ccc(Cl)cc4)cc23)c1F + COC1C(OC(N)=O)C(O)C(Oc2ccc3c(O)c(NC(=O)c4ccc(O)c(CC=C(C)C)c4)c(=O)oc3c2C)OC1(C)C . no

Also need COc1cc(C2c3cc4c(cc3C(OC3OC5COC(C)OC5C(O)C3O)C3COC(=O)C23)OCO4)cc(OC)c1O (stereo not drawn) + Nc1ccc(C#CCN(C(=O)Cc2ncc(C(F)(F)F)cc2C(F)(F)F)c2ccc(F)cc2)nn1 , thanks. no

What about C#Cc1c(F)ccc2cc(O)cc(-c3ncc4c(N5CC6CCC(C5)N6)nc(OCC56CCCN5CC(F)C6)nc4c3F)c12 (stereo not drawn) + Cc1cccc(N(C)C(=O)C2C(O)CCN2c2nc(C)cc(C(F)(F)F)c2C#N)c1 ? no

Another molecule to look at: CC(C)n1c(=O)n(C)c2cnc3cc(F)c(-c4ccc(OCCCN5CCCCC5)nc4)cc3c21 + Nc1ccc(C#CCN(C(=O)Cc2ncc(C(F)(F)F)cc2C(F)(F)F)c2ccc(F)cc2)nn1 no

What do we get for C#Cc1c(F)ccc2cc(O)cc(-c3ncc4c(N5CC6CCC(C5)N6)nc(OCC56CCCN5CC(F)C6)nc4c3F)c12 (stereo not drawn) + Nc1ccc(C#CCN(C(=O)Cc2ncc(C(F)(F)F)cc2C(F)(F)F)c2ccc(F)cc2)nn1 ? no

Also CC1COCCN1c1cc(C2(O)CC3CCC(C2)O3)c2cnn(-c3ccn[nH]3)c2n1 (stereo not drawn) + Nc1ccc(C#CCN(C(=O)Cc2ncc(C(F)(F)F)cc2C(F)(F)F)c2ccc(F)cc2)nn1 ? yes
